- Tested on: M14 melanoma
- ASSAY TEXT: NCI tumour cell line growth inhibition, 48 h
Collected TGI values appear next to each entry.

Known results for compounds:
COMPOUND: CCCC1CCC(=C2C(=O)CCC2=O)O1 (stereo unspecified)
REPORTED ENDPOINT: TGI
RESULT: > 100 µM
--
COMPOUND: COC1C(N)C(OC2C(Oc3cccc4c(O)c5c(=O)oc6ccc(C)c7c(=O)oc(c34)c5c67)OC(C)C(O)C2(C)O)OC(C)C1O (stereo unspecified)
REPORTED ENDPOINT: TGI
RESULT: 0.75 µM
--
COMPOUND: Cc1cc(C)nc(SC2=C(Nc3cc(Cl)ccc3O)C(=O)N(Cc3ccccc3)C2=O)n1
REPORTED ENDPOINT: TGI
RESULT: > 160 µM
--
COMPOUND: Cc1ccccc1NC(=O)C(=O)C(C#N)c1ccccc1C (stereo unspecified)
REPORTED ENDPOINT: TGI
RESULT: > 100 µM
--
COMPOUND: COc1ccc(/C=C(\C#N)n2nnc3c(F)cccc32)cc1
REPORTED ENDPOINT: TGI
RESULT: 1.57 µM
--
COMPOUND: N[C@H](C(=O)O)[C@@H]1CC(Br)=NO1
REPORTED ENDPOINT: TGI
RESULT: > 100 µM
--
COMPOUND: NC(=O)NNC(=O)NC12CC3CC(CC(C3)C1)C2
REPORTED ENDPOINT: TGI
RESULT: > 100 µM
--
COMPOUND: CCC(=O)C(CCN1CCC2(CCCc3ccccc32)CC1)(c1ccccc1)c1ccccc1
REPORTED ENDPOINT: TGI
RESULT: 4.56 µM
--
COMPOUND: CCOC(=O)C1(C(=O)OCC)[C@@H](c2ccccc2)C2=NO[C@@H]3CCC[C@H]1[C@H]23
REPORTED ENDPOINT: TGI
RESULT: > 100 µM
--
COMPOUND: [N-]=[N+]=NI1OC(=O)c2ccccc21
REPORTED ENDPOINT: TGI
RESULT: > 100 µM

In the following, a different compound is considered.
Lab note: need TGI with M14 melanoma for entry `O=C(/C=C/c1ccccc1)Oc1ccc(C(=O)/C=C/c2ccc(Cl)cc2)cc1` , please look it up.
> 100 µM
